# assayedSystem: Inhibitor of nuclear factor kappa-B kinase subunit beta (Homo sapiens, UniProt O14920)
# Sequence (O14920 whole entry): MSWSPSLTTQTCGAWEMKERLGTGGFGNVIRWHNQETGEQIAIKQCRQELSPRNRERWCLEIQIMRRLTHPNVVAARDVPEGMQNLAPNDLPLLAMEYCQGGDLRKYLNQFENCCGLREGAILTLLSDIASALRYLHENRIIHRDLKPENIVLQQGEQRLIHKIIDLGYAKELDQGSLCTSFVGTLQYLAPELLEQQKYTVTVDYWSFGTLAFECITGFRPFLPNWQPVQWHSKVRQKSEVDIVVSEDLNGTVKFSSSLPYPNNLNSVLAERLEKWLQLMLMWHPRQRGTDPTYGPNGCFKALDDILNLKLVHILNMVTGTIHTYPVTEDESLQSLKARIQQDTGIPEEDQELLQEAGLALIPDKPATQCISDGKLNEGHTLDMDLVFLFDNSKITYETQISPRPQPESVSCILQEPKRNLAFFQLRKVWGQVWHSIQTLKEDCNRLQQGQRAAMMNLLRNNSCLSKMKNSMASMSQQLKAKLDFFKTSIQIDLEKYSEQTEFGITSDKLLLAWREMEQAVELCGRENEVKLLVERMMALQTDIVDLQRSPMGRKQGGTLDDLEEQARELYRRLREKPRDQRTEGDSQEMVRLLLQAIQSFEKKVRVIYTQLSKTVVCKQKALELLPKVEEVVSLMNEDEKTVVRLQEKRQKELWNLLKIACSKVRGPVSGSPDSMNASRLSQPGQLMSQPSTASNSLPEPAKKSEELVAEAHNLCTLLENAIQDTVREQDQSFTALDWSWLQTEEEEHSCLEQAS
# procedureSummary: Inhibition of IKKB (unknown origin)
observationType: IC50

[
  {
    "structureSmiles": "O=C1c2oc(-c3ccc(Cl)cc3)cc2Cc2cc(N3CCNCC3)ccc2N1Cc1ccccc1-c1cccnc1",
    "assayedSystem": "Inhibitor of nuclear factor kappa-B kinase subunit beta (Homo sapiens, UniProt O14920)",
    "result": "24 µM"
  }
]

###

# assayedSystem: Testis-specific serine/threonine-protein kinase 2 (Homo sapiens)
# Sequence (Q96PF2 whole entry): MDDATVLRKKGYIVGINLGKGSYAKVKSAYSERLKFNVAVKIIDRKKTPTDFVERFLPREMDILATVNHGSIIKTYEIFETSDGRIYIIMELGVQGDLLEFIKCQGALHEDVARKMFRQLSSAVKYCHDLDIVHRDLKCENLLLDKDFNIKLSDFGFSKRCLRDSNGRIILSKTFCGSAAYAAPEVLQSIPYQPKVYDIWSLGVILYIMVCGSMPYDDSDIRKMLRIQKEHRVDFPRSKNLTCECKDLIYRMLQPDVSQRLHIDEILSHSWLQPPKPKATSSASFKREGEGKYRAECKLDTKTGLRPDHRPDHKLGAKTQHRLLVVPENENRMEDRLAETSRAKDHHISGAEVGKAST
observationType: IC50

[
  {
    "structureSmiles": "O=C1c2oc(-c3ccc(Cl)cc3)cc2Cc2cc(N3CCNCC3)ccc2N1Cc1ccccc1-c1cccnc1",
    "result": "> 30 µM"
  }
]

Measured values drawn from ChEMBL document CHEMBL2384992 for this set.
